Provenance of the data: patent US8889875B2

The reader will find reported Emax values listed item by item below.
# assayedTarget: ΔF508-CFTR (Homo sapiens, UniProt P13569, DEL508-508)
# Construct: expressed in transfected cells
# Sequence (P13569 with tags, fused parts or gaps DEL508-508): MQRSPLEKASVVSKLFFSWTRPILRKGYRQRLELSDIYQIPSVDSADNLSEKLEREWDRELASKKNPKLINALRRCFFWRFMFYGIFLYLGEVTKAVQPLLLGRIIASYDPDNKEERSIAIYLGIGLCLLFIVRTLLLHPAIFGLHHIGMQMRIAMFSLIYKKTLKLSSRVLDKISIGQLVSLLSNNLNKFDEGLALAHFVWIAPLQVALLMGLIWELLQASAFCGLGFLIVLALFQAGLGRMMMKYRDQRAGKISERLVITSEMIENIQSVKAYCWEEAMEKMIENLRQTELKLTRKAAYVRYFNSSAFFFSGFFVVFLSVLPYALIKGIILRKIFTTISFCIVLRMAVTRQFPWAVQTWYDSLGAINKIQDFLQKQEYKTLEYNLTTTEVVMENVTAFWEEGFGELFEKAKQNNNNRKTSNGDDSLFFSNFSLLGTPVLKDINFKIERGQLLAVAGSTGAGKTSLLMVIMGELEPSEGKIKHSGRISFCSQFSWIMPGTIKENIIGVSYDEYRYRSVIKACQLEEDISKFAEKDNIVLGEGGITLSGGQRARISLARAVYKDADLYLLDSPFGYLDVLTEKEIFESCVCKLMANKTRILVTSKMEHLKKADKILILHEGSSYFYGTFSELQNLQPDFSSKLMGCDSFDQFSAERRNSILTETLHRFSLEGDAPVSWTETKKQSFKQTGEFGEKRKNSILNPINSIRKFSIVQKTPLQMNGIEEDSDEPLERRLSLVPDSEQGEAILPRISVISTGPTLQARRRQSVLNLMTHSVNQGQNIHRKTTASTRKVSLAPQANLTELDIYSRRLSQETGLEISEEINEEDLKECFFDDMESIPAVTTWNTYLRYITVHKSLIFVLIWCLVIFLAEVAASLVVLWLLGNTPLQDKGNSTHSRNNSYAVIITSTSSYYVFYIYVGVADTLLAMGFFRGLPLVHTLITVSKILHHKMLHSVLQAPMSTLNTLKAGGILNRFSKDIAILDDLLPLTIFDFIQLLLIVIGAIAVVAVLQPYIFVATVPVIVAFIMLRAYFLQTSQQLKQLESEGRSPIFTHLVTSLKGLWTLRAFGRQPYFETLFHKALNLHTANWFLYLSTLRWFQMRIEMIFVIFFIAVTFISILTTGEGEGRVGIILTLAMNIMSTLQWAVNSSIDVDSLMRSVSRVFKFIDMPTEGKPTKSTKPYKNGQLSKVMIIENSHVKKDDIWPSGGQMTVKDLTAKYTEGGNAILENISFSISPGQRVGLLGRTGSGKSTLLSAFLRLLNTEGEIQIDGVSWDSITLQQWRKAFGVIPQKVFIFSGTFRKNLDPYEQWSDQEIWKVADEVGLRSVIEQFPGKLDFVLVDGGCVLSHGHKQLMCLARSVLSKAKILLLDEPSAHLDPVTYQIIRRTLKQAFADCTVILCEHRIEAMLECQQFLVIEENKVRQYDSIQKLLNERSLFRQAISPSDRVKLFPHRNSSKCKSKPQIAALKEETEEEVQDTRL
# assayProtocol: Membrane potential optical assay, identification of correction compounds (single-addition HTS format)
# Assay type: cell-based
# settings: PercentActivity; ΔF508-CFTR in NIH3T3 mouse fibroblasts; 16-24 hrs with compound; 10 μM forskolin and 20 μM genistein; read-out: BinnedMaxEfficacy

Lookup: Item under review: COc1ccccc1C(=O)c1ccc(NC(=O)C2(c3ccc(OC(F)(F)F)cc3)CC2)nc1 . Reported Emax?
Found: 25 to 100%

----------
# assayedTarget: ΔF508-CFTR (Homo sapiens, UniProt P13569, DEL508-508)
# Construct: expressed in transfected cells
# assayProtocol: Membrane potential optical assay, identification of correction compounds (single-addition HTS format)
# Format: cell-based
# settings: PercentActivity; ΔF508-CFTR in NIH3T3 mouse fibroblasts; 16-24 hrs with compound; 10 μM forskolin and 20 μM genistein; read-out: BinnedMaxEfficacy
The reader will find reported Emax values listed item by item below.

Some entries whose results are on file:
compound=O=C(Nc1ccc(Cc2ccccc2)cn1)C1(c2ccc3c(c2)OCO3)CC1 assayedtarget="ΔF508-CFTR (Homo sapiens, UniProt P13569, DEL508-508)" observationtype=Emax result="> 100%"
compound=O=C(Nc1ncccc1OCc1ccccc1)C1(c2ccc3c(c2)OCO3)CC1 assayedtarget="ΔF508-CFTR (Homo sapiens, UniProt P13569, DEL508-508)" observationtype=Emax result="25 to 100%"
compound=O=C(Nc1ccc(F)cn1)C1(c2ccc3c(c2)OCO3)CC1 assayedtarget="ΔF508-CFTR (Homo sapiens, UniProt P13569, DEL508-508)" observationtype=Emax result="> 100%"
compound="CNC(c1ccc(NC(=O)C2(c3ccc4c(c3)OCO4)CC2)nc1)c1ccccc1OC (centres unmarked)" assayedtarget="ΔF508-CFTR (Homo sapiens, UniProt P13569, DEL508-508)" observationtype=Emax result="> 100%"
compound="COc1ccccc1C(c1ccc(NC(=O)C2(c3ccc4c(c3)OCO4)CC2)nc1)N1CCCC1 (centres unmarked)" assayedtarget="ΔF508-CFTR (Homo sapiens, UniProt P13569, DEL508-508)" observationtype=Emax result="> 100%"

Lookup: Item under review: Cc1ccccc1Cc1cccc(NC(=O)C2(c3ccc4c(c3)OCO4)CC2)n1 . Reported Emax?
Found: > 100%

Lookup: Item under review: COc1ccccc1C(c1ccc(NC(=O)C2(c3ccc4c(c3)OCO4)CC2)nc1)N(C)C (centres unmarked) . Reported Emax?
Found: > 100%

Lookup: Item under review: COc1ccccc1Nc1ccc(NC(=O)C2(c3ccc4c(c3)OCO4)CC2)nc1 . Reported Emax?
Found: > 100%

Lookup: Item under review: CCN(C)C(c1ccc(NC(=O)C2(c3ccc4c(c3)OCO4)CC2)nc1)c1ccccc1OC (centres unmarked) . Reported Emax?
Found: > 100%

Lookup: Item under review: COc1ccccc1C(c1ccc(NC(=O)C2(c3ccc4c(c3)OCO4)CC2)nc1)N1CCOCC1 (centres unmarked) . Reported Emax?
Found: > 100%
